TESTED SYSTEM: T1, human TNFR2 (Novoprotein, Cat #C830) (human, UniProt P20333 23-257, limits assumed)
T1 construct: construct not described; also called human TNFR2 protein
T1 sequence (looked up): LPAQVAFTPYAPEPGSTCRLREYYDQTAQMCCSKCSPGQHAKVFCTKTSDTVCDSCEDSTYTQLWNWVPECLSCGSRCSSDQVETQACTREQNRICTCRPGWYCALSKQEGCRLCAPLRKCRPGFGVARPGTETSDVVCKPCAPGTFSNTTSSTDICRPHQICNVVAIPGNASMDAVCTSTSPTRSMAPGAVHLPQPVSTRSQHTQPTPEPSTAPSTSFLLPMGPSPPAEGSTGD
TEST PROTOCOL: competition ELISA, competitor human TNFα-Biotin; area under the OD curve
In this section we review reported AUC values for a set of binders.

BINDER: 219-Hu5 (antibody, V domains shown, also called VH7 + VL5) VH: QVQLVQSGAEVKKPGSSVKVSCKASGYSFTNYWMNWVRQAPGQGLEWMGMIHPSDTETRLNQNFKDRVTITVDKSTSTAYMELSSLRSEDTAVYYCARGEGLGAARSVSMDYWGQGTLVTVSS VL: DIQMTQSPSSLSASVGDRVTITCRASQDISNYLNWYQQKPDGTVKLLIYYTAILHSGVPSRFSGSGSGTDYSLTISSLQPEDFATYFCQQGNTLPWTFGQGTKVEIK
AUC: 7.96
--
BINDER: 001-Hu5 (antibody, V domains shown, Humanized form of #001; also called VH1 + VL4) VH: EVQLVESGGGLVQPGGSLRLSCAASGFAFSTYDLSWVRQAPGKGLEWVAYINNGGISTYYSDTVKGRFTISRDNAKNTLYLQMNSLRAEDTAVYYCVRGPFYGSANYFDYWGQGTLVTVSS VL: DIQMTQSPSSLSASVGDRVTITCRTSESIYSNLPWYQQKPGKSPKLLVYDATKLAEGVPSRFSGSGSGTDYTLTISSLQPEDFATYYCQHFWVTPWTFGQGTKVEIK
AUC: 8.02
--
BINDER: 224-Hu4 (antibody, V domains shown, Humanized form of #224; also called VH9 + VL6) VH: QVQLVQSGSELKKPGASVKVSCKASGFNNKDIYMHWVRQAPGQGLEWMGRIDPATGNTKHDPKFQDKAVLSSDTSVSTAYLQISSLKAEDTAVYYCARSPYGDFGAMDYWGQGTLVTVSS VL: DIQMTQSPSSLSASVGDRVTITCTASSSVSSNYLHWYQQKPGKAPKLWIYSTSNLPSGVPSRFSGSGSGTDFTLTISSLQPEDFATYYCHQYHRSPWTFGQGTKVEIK
AUC: 6.25
